biological target: human CXCR4 (human); experiment: competition vs [125I]-CXCL12; potency relative to monovalent 238D2
valueKind: Rel. potency (fold)
Answers are plain numbers, in fold.

# binder, endpointValue
rows = [
    ("238D2-10GS-238D2 (VHH) EVQLVESGGGLVQTGGSLRLSCAASGFTFSSYAMSWVRQAPGKGLEWVSGIKSSGDSTRYAGSVKGRFTISRDNAKNMLYLQMYSLKPEDTAVYYCAKSRVSRTGLYTYDNRGQGTQVTVSSGGGGSGGGGSEVQLVESGGGLVQTGGSLRLSCAASGFTFSSYAMSWVRQAPGKGLEWVSGIKSSGDSTRYAGSVKGRFTISRDNAKNMLYLQMYSLKPEDTAVYYCAKSRVSRTGLYTYDNRGQGTQVTVSS", 14),
]

// next item, Rel. potency requested
Look up Rel. potency for this binder: 238D2-20GS-238C5 (VHH) EVQLVESGGGLVQTGGSLRLSCAASGFTFSSYAMSWVRQAPGKGLEWVSGIKSSGDSTRYAGSVKGRFTISRDNAKNMLYLQMYSLKPEDTAVYYCAKSRVSRTGLYTYDNRGQGTQVTVSSGGGGSGGGGSGGGGSGGGGSEVQLMESGGGLVQAGGSLRLACAASGFTFEDYAIGWFRKAPGKEREGVSCISGSDGSTTYADSVKGRFTISTDNAKNTVYLEMNSLKPEDTAVYYCAQQYGVGGRVVCPGPYEYDVWGQGTQVTVSS
0.18
